Where do the numbers come from? From PubChem BioAssay (NCI).

# Tested on: RXF 393 renal
# procedure.summary: NCI-60 one-dose screen, 48 h (100 = growth as untreated, 0 = no growth, -100 = all killed)
# experimental.setup: 10 µM unless noted
About 83,000 compounds went through this panel and 20% of them were active in at least one assay; those are over-represented in the sample as a whole. Activity calls are given as the source filed them. Rule for the calls: active = growth percent below 10; inactive = the rest.
# growth per entry

# example entries with known answers
compound	result
NNc1ccc(S(N)(=O)=O)cc1	105% (inactive)
CCOC(=O)C1C(=O)C=C(c2cc(OC)c(OC)c(OC)c2)CC1c1sc(N(C)Cc2ccccc2)nc1Cl (stereo unspecified)	81.5% (inactive)
CCCCCCCCCCCC1=NC(C)(C)CN1CC(C)O (stereo unspecified)	28.9% (inactive)

Asked: Which growth value belongs to `COc1ccc(Cl)cc1Nc1nc(C(F)(F)F)ccc1C(=O)NN` ?
Given back: -3.01% (active)

Asked: Same for `COc1ccc(CNc2c3ccccc3nc3ccc(OC)cc23)cc1`
Given back: -2.57% (active)

Asked: Then this compound: `COc1ccc2[nH]cc(C3(c4c[nH]c5ccc(OC)cc45)C(=O)Nc4ccc(F)cc43)c2c1`
Given back: 78.8% (inactive)

Asked: And for COc1cc(C2CC(c3ccc(C)cc3)=NN2C=O)ccc1Oc1ccnc2cc(Cl)ccc12 (stereo unspecified) ?
Given back: 0.362% (active)

Asked: Record: CC1=CC(=O)OC1C/C=C(\C)CCC1[C@@]2(C)CCC[C@@](C)(C(=O)O)C2CC[C@@]1(C)O (stereo partly specified)
Given back: 49.2% (inactive)

Asked: Next compound up: `CCN(CC)CCNC(=O)C(F)(F)C(F)(F)C(F)(F)F`
Given back: 98% (inactive)

Asked: // query: Oc1c(C(Nc2ccccc2Br)c2ccccc2)ccc2cccnc12 (stereo unspecified)
Given back: 37.6% (inactive)

Asked: Try this compound too: `Cc1csc(N/N=C/c2ccncc2)n1`
Given back: 99.5% (inactive)

Asked: Request: `COc1cc(/C=C/c2cc(/C=C/c3ccc(O)c(OC)c3)n(C(=O)Nc3ccc(F)c(Cl)c3)n2)ccc1O`
Given back: -57.6% (active)

Asked: Lookup `O=S(=O)(Nc1ccc2ccccc2c1)N1CCCCC1`
Given back: 68.3% (inactive)

Asked: Do the same for `CC(C)CCSc1nc(Nc2ccccc2)c(C#N)c(-c2ccc(F)cc2)n1` please
Given back: 82% (inactive)

Asked: Repeat for the following compound: CCOC(=O)C1=C(C)NC(=S)NC1c1ccccc1 (stereo unspecified)
Given back: 117% (inactive)

Asked: Same question for `OC(COCc1ccccc1)COCc1ccccc1` please.
Given back: 119% (inactive)

Asked: What about this compound? `COc1cc2ncnc(Nc3ccc(S(=O)(=O)Nc4nccs4)cc3)c2cc1OCCCN1CCOCC1`
Given back: 111% (inactive)

Asked: How about `COc1ccc2c(c1)C1=NN(C(=O)CO)[C@H](c3ccc(OC(F)(F)F)cc3)[C@@H]1CC2` ?
Given back: -19.9% (active)
